Here, each record is paired with measured MIC data.
Tested on: Aspergillus niger
assay.notes: Antifungal activity against Aspergillus niger after 48 to 72 hrs by broth microdilution method
Assay type: functional
Dear colleague, please return just the value in µg/mL, with no unit written.

Solved cases below.
- cpd.smiles: "Cc1cc2oc(=O)cc(CN=[N+]=[N-])c2cc1S(=O)(=O)Nc1ccc(Cl)cc1Cl"
  MIC (µg/mL): 250
- cpd.smiles: "Cc1cc2oc(=O)cc(CN=[N+]=[N-])c2cc1S(=O)(=O)Nc1ccc(Cl)c(Cl)c1"
  MIC (µg/mL): 16
- cpd.smiles: "Cc1cc2oc(=O)cc(CN=[N+]=[N-])c2cc1S(=O)(=O)Nc1ccc(Cl)cc1[N+](=O)[O-]"
  MIC (µg/mL): 62.5
- cpd.smiles: "COc1ccc(NS(=O)(=O)c2cc3c(CN=[N+]=[N-])cc(=O)oc3cc2C)cc1"
  MIC (µg/mL): 2

Kindly review the next molecule as well.
QUERY: Query (molecule): COc1ccccc1NS(=O)(=O)c1cc2c(CN=[N+]=[N-])cc(=O)oc2cc1C ; field requested: MIC
RESULT: 16

###

Test system: Aspergillus niger
assay.notes: Antifungal activity against Aspergillus niger after 48 to 72 hrs by broth microdilution method
Type: functional
readout.name: MIC (µg/mL)
Dear colleague, please return just the value in µg/mL, with no unit written.

- cpd.smiles: "Cc1cc2oc(=O)cc(CN=[N+]=[N-])c2cc1S(=O)(=O)Nc1ccccc1[N+](=O)[O-]"
  MIC / µg/mL: 8
- cpd.smiles: "Cc1cc2oc(=O)cc(CN=[N+]=[N-])c2cc1S(=O)(=O)Nc1ccccc1Cl"
  MIC / µg/mL: 62.5
- cpd.smiles: "CCOc1ccc(NS(=O)(=O)c2cc3c(CN=[N+]=[N-])cc(=O)oc3cc2C)cc1"
  MIC / µg/mL: 250

QUERY: Can you look up MIC on Aspergillus niger for Cc1ccc(NS(=O)(=O)c2cc3c(CN=[N+]=[N-])cc(=O)oc3cc2C)c(C)c1 ?
RESULT: 4

QUERY: Continue with Cc1cc2oc(=O)cc(CN=[N+]=[N-])c2cc1S(=O)(=O)Nc1ccccc1
RESULT: 8

QUERY: Continue with Cc1cc2oc(=O)cc(CN=[N+]=[N-])c2cc1S(=O)(=O)Nc1cc([N+](=O)[O-])ccc1Cl
RESULT: 8

QUERY: Continue with Cc1ccc(NS(=O)(=O)c2cc3c(CN=[N+]=[N-])cc(=O)oc3cc2C)cc1C
RESULT: 4

QUERY: Continue with Cc1cc2oc(=O)cc(CN=[N+]=[N-])c2cc1S(=O)(=O)Nc1cccc([N+](=O)[O-])c1
RESULT: 8

QUERY: Continue with Cc1cc2oc(=O)cc(CN=[N+]=[N-])c2cc1S(=O)(=O)Nc1ccc(Cl)cc1
RESULT: 31.2

QUERY: Continue with Cc1cc2oc(=O)cc(CN=[N+]=[N-])c2cc1S(=O)(=O)Nc1cccc2ccccc12
RESULT: 1

QUERY: Continue with OC(Cn1cncn1)(Cn1cncn1)c1ccc(F)cc1F
RESULT: 8

QUERY: Continue with Cc1cc2oc(=O)cc(CBr)c2cc1S(=O)(=O)Cl
RESULT: 4

QUERY: Continue with Cc1ccc(NS(=O)(=O)c2cc3c(CN=[N+]=[N-])cc(=O)oc3cc2C)cc1
RESULT: 4

###

System: Enterococcus faecalis
assay.notes: Antibacterial activity against Streptococcus faecalis MTCC 3382 after 18 hrs by broth microdilution method
Type: functional
settings: MTCC 3382, 18 h
readout.name: MIC (µg/mL)
Dear colleague, please return just the value in µg/mL, with no unit written.

- cpd.smiles: "Cc1cc2oc(=O)cc(CN=[N+]=[N-])c2cc1S(=O)(=O)Nc1ccc(Cl)c(Cl)c1"
  readout.name: "MIC"
  quantitative.readout: 16
- cpd.smiles: "Cc1cc2oc(=O)cc(CN=[N+]=[N-])c2cc1S(=O)(=O)Nc1ccccc1Cl"
  readout.name: "MIC"
  quantitative.readout: 1
- cpd.smiles: "Cc1cc2oc(=O)cc(CN=[N+]=[N-])c2cc1S(=O)(=O)Nc1ccc([N+](=O)[O-])cc1"
  readout.name: "MIC"
  quantitative.readout: 4
- cpd.smiles: "Cc1cc2oc(=O)cc(CN=[N+]=[N-])c2cc1S(=O)(=O)Nc1ccc(Cl)cc1[N+](=O)[O-]"
  readout.name: "MIC"
  quantitative.readout: 4
- cpd.smiles: "COc1ccccc1NS(=O)(=O)c1cc2c(CN=[N+]=[N-])cc(=O)oc2cc1C"
  readout.name: "MIC"
  quantitative.readout: 1
- cpd.smiles: "Cc1cccc(NS(=O)(=O)c2cc3c(CN=[N+]=[N-])cc(=O)oc3cc2C)c1"
  readout.name: "MIC"
  quantitative.readout: 250

QUERY: Query (compound): Cc1ccc(NS(=O)(=O)c2cc3c(CN=[N+]=[N-])cc(=O)oc3cc2C)c(C)c1 ; field requested: MIC
RESULT: 62.5

QUERY: Continue with Cc1cc2oc(=O)cc(CN=[N+]=[N-])c2cc1S(=O)(=O)Nc1cccc2ccccc12
RESULT: 2

QUERY: Continue with O=C(O)c1cn(C2CC2)c2cc(N3CCNCC3)c(F)cc2c1=O
RESULT: 1

###

Tested on: Aspergillus niger
assay.notes: Antifungal activity against Aspergillus niger after 48 to 72 hrs by broth microdilution method
Type: functional
Here, each record is paired with measured MIC data.
Dear colleague, please return just the value in µg/mL, with no unit written.

Solved cases below.
- cpd.smiles: "Cc1cc2oc(=O)cc(CN=[N+]=[N-])c2cc1S(=O)(=O)Nc1cccc(Cl)c1"
  MIC, µg/mL: 31.2
- cpd.smiles: "Cc1cc([N+](=O)[O-])ccc1NS(=O)(=O)c1cc2c(CN=[N+]=[N-])cc(=O)oc2cc1C"
  MIC, µg/mL: 4
- cpd.smiles: "Cc1ccc(NS(=O)(=O)c2cc3c(CN=[N+]=[N-])cc(=O)oc3cc2C)cc1Cl"
  MIC, µg/mL: 16

Kindly review the next compound as well.
QUERY: Query (compound): Cc1cc2oc(=O)cc(CN=[N+]=[N-])c2cc1S(=O)(=O)Cl ; field requested: MIC
RESULT: 8

###

System: Enterococcus faecalis
assay.notes: Antibacterial activity against Streptococcus faecalis MTCC 3382 after 18 hrs by broth microdilution method
Type: functional
settings: MTCC 3382, 18 h
readout.name: MIC (µg/mL)
Dear colleague, please return just the value in µg/mL, with no unit written.

Solved cases below.
- cpd.smiles: "Cc1cc2oc(=O)cc(CN=[N+]=[N-])c2cc1S(=O)(=O)Nc1cc([N+](=O)[O-])ccc1Cl"
  MIC (µg/mL): 2
- cpd.smiles: "Cc1ccc(NS(=O)(=O)c2cc3c(CN=[N+]=[N-])cc(=O)oc3cc2C)c([N+](=O)[O-])c1"
  MIC (µg/mL): 1
- cpd.smiles: "Cc1cc2oc(=O)cc(CN=[N+]=[N-])c2cc1S(=O)(=O)Nc1ccc(Cl)cc1"
  MIC (µg/mL): 4
- cpd.smiles: "CCOc1ccc(NS(=O)(=O)c2cc3c(CN=[N+]=[N-])cc(=O)oc3cc2C)cc1"
  MIC (µg/mL): 1
- cpd.smiles: "Cc1ccc(NS(=O)(=O)c2cc3c(CN=[N+]=[N-])cc(=O)oc3cc2C)cc1C"
  MIC (µg/mL): 8

QUERY: Can you look up MIC on Enterococcus faecalis for Cc1cc2oc(=O)cc(CN=[N+]=[N-])c2cc1S(=O)(=O)Nc1ccccc1 ?
RESULT: 31.2

QUERY: Continue with Cc1cc2oc(=O)cc(CBr)c2cc1S(=O)(=O)Cl
RESULT: 16

QUERY: Continue with Cc1cc2oc(=O)cc(CN=[N+]=[N-])c2cc1S(=O)(=O)Nc1ccccc1[N+](=O)[O-]
RESULT: 1

QUERY: Continue with COc1cccc(NS(=O)(=O)c2cc3c(CN=[N+]=[N-])cc(=O)oc3cc2C)c1
RESULT: 1

QUERY: Continue with Cc1cc2oc(=O)cc(CN=[N+]=[N-])c2cc1S(=O)(=O)Nc1ccc(Br)cc1
RESULT: 1

QUERY: Continue with Cc1cc2oc(=O)cc(CN=[N+]=[N-])c2cc1S(=O)(=O)Nc1cccc([N+](=O)[O-])c1
RESULT: 8

QUERY: Continue with COc1ccc(NS(=O)(=O)c2cc3c(CN=[N+]=[N-])cc(=O)oc3cc2C)cc1
RESULT: 1

QUERY: Continue with Cc1cc2oc(=O)cc(CN=[N+]=[N-])c2cc1S(=O)(=O)Nc1ccc(Cl)cc1Cl
RESULT: 1

QUERY: Continue with Cc1ccc(NS(=O)(=O)c2cc3c(CN=[N+]=[N-])cc(=O)oc3cc2C)cc1
RESULT: 16

QUERY: Continue with Cc1ccc(NS(=O)(=O)c2cc3c(CN=[N+]=[N-])cc(=O)oc3cc2C)cc1Cl
RESULT: 8
